tested_system: PDE V (cGMP-specific PDE) (Canis lupus familiaris)
Construct: PDE V (cGMP-specific PDE) was purified from canine tracheal smooth muscle; from tissue; host or cells: canine tracheal smooth muscle
experimental_protocol: inhibitory activity on PDE V derived from canine tracheal smooth muscle
Assay type: biochemical
experimental_parameters: 1 nM compound; substrate 1.0 μM [3H]cGMP; pH 7.2; 30° C., 10 to 30 minutes; inhibitor dissolved in 1.7% DMSO; read-out: PDE V Inhibitory activity, inhibition rate (%)
Counter-ions that a name gives are not always drawn.
outcome_measure: inhibition at 0.001 µM (%)
Give bare numbers, in %.

Known inhibition at 0.001 µM results, listed for orientation:
[
  {
    "molecule": "CCn1c(=O)[nH]c2cc3c(NCc4ccccc4OCCN4CCOCC4)ncnc3cc21 [Compound 21, hydrochloride]",
    "tested_system": "PDE V (cGMP-specific PDE) (Canis lupus familiaris)",
    "quantity_unit": "%",
    "experimental_result": 29
  },
  {
    "molecule": "CCn1c(=S)[nH]c2cc3c(NCc4ccccc4OCCN4CCOCC4)ncnc3cc21 [Compound 29, hydrochloride]",
    "tested_system": "PDE V (cGMP-specific PDE) (Canis lupus familiaris)",
    "quantity_unit": "%",
    "experimental_result": 91
  },
  {
    "molecule": "CCn1c(=S)[nH]c2cc3c(NCc4ccccc4CN4CC=CCC4)ncnc3cc21 [Compound 71, hydrochloride]",
    "tested_system": "PDE V (cGMP-specific PDE) (Canis lupus familiaris)",
    "quantity_unit": "%",
    "experimental_result": 97
  },
  {
    "molecule": "CCn1c(=S)[nH]c2cc3c(NCc4cccc(OCCCN5CCOCC5)c4)ncnc3cc21 [Compound 79, hydrochloride]",
    "tested_system": "PDE V (cGMP-specific PDE) (Canis lupus familiaris)",
    "quantity_unit": "%",
    "experimental_result": 95
  }
]

Hi there! I need inhibition at 0.001 µM for each item below, if you can.
1. CCn1c(=S)[nH]c2cc3c(NCc4ccccc4CN4CCOCC4)ncnc3cc21 [Compound 4, hydrochloride]
2. CCn1c(=S)[nH]c2cc3c(NCc4ccc(OCCN5CCOCC5)cc4)ncnc3cc21 [Compound 42, hydrochloride]
3. CCOC(=O)C1CCN(Cc2ccccc2CNc2ncnc3cc4c(cc23)[nH]c(=O)n4CC)CC1 [Compound 76, hydrochloride]
4. CCN(CC)CCCOc1cccc(CNc2ncnc3cc4c(cc23)[nH]c(=S)n4CC)c1 [Compound 80, hydrochloride]
5. CCn1c(=S)[nH]c2cc3c(NCc4ccccc4OCCN4CCN(C)CC4)ncnc3cc21 [Compound 32, hydrochloride]
6. CCn1c(=S)[nH]c2cc3c(NCc4ccc(CN5CCCCC5)cc4)ncnc3cc21 [Compound 15, hydrochloride]
7. CCn1c(=O)[nH]c2cc3c(NCc4ccccc4CN4CCOCC4)ncnc3cc21 [Compound 1, hydrochloride]
8. CCOC(=O)C1CCN(Cc2ccccc2CNc2ncnc3cc4c(cc23)[nH]c(=S)n4CC)CC1 [Compound 75, hydrochloride]

A)
1. 97
2. 89
3. 88
4. 92
5. 79
6. 63
7. 74
8. 92
